Entry source: patent US20140031432A1

Test system: human dermal fibroblasts from LHON patients
method: Rescue of fibroblasts from LHON patients from oxidative stress (Example C)
Format: cell-based
conditionContext: Fibroblast, LHON cells (Coriell GM03858), screen as in Example A (BSO stress), read-out: protection against LHON, EC50
measuredProperty: EC50

molecule: CC1=CC(=O)c2ccccc2C1=O [2-methylnaphthalene-1,4-dione]
target: human dermal fibroblasts from LHON patients
EC50: < 300 nM

Now consider the entry below.
Ask: Looking for the measured EC50 of `CC(C)=CCCC(C)=CCC1=C(C)C(=O)c2ccccc2C1=O` , can you help?
Result: < 300 nM
